// data source = patent US5405834A

- target_or_test_system: UniProt:A0ABI0NU39
- Sequence (A0ABI0NU39 1-214): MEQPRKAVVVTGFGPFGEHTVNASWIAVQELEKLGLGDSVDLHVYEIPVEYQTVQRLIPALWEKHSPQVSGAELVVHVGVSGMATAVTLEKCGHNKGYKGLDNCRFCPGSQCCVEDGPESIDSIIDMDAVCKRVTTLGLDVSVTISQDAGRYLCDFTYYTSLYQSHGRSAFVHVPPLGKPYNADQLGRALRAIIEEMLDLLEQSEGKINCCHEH
- experimental_details: Degradation in buffer pH 7.4 containing pyroglutamyl aminopeptidase
- condition_info: calf
Collected half-life values appear next to each entry.
Write it as a number; the unit min goes unstated.

// solved cases for half-life follow
smiles_text	half-life (min)
COC(=O)n1cnc(C[C@H](NC(=O)[C@@H]2CCC(=O)N2)C(=O)N2CCC[C@H]2C(N)=O)c1	12
CC(C)OC(=O)n1cnc(C[C@H](NC(=O)[C@@H]2CCC(=O)N2)C(=O)N2CCC[C@H]2C(N)=O)c1	29
CCCCCCOC(=O)n1cnc(C[C@H](NC(=O)[C@@H]2CCC(=O)N2)C(=O)N2CCC[C@H]2C(N)=O)c1	8
CCCCCCCCOC(=O)n1cnc(C[C@H](NC(=O)[C@@H]2CCC(=O)N2)C(=O)N2CCC[C@H]2C(N)=O)c1	24
NC(=O)[C@@H]1CCCN1C(=O)[C@H](Cc1cn(C(=O)OC2CCCCC2)cn1)NC(=O)[C@@H]1CCC(=O)N1	22

As a next step, examine the molecule that follows.
-- ask # lookup: half-life of CC(C)COC(=O)n1cnc(C[C@H](NC(=O)[C@@H]2CCC(=O)N2)C(=O)N2CCC[C@H]2C(N)=O)c1
-- reply 11

* * *

- experimental_details: in vitro
- condition_info: human, plasma
So basically, if half-life comes in under 3 h it's Condition met, and if it's 3 h or more it's Condition not met.

Use these answered entries as a reference point.
compound	class_label
CC(C)COC(=O)n1cnc(C[C@H](NC(=O)[C@@H]2CCC(=O)N2)C(=O)N2CCC[C@H]2C(N)=O)c1	Condition not met
CCCCOC(=O)n1cnc(C[C@H](NC(=O)[C@@H]2CCC(=O)N2)C(=O)N2CCC[C@H]2C(N)=O)c1	Condition not met

-- ask Just wondering, is half-life of NC(=O)[C@@H]1CCCN1C(=O)[C@H](Cc1cnc[nH]1)NC(=O)[C@@H]1CCC(=O)N1 [TRH, pGlu-L-His-L-ProNH2, reference compound] below 3 h?
-- reply Condition met

-- ask Let us now turn to NC(=O)[C@@H]1CCCN1C(=O)[C@H](Cc1cn(C(=O)OC2CCCCC2)cn1)NC(=O)[C@@H]1CCC(=O)N1
-- reply Condition not met

-- ask Can you handle CC(C)OC(=O)n1cnc(C[C@H](NC(=O)[C@@H]2CCC(=O)N2)C(=O)N2CCC[C@H]2C(N)=O)c1 next?
-- reply Condition not met

-- ask Same for COC(=O)n1cnc(C[C@H](NC(=O)[C@@H]2CCC(=O)N2)C(=O)N2CCC[C@H]2C(N)=O)c1
-- reply Condition met

-- ask And then CCCCCCCCOC(=O)n1cnc(C[C@H](NC(=O)[C@@H]2CCC(=O)N2)C(=O)N2CCC[C@H]2C(N)=O)c1 , what is it?
-- reply Condition met

-- ask # iterate: CCOC(=O)n1cnc(C[C@H](NC(=O)[C@@H]2CCC(=O)N2)C(=O)N2CCC[C@H]2C(N)=O)c1
-- reply Condition not met

-- ask # repeat for CCCCCCOC(=O)n1cnc(C[C@H](NC(=O)[C@@H]2CCC(=O)N2)C(=O)N2CCC[C@H]2C(N)=O)c1
-- reply Condition met

* * *

- experimental_details: physchem
- condition_info: pH 7.4
outcome_measure: logD
Quick one: just the number, no unit, thanks!

-- ask Record request: logD value, item NC(=O)[C@@H]1CCCN1C(=O)[C@H](Cc1cnc[nH]1)NC(=O)[C@@H]1CCC(=O)N1 [TRH, pGlu-L-His-L-ProNH2, reference compound]
-- reply -2.46

* * *

- experimental_details: Apparent partition coefficient between 1-octanol and phosphate buffer pH 7.4
- condition_info: 1-octanol/0.02 M phosphate buffer pH 7.4, pH 7.4
outcome_measure: logD
Field format: numeric only.

Completed entries (count: 2):
smiles_text	numeric_value
CCC(CC)OC(=O)n1cnc(C[C@H](NC(=O)[C@@H]2CCC(=O)N2)C(=O)N2CCC[C@H]2C(N)=O)c1	0.2
CCCC(CCC)OC(=O)n1cnc(C[C@H](NC(=O)[C@@H]2CCC(=O)N2)C(=O)N2CCC[C@H]2C(N)=O)c1	1.2

-- ask Entry NC(=O)[C@@H]1CCCN1C(=O)[C@H](Cc1cn(C(=O)OC2CCCCC2)cn1)NC(=O)[C@@H]1CCC(=O)N1 has what logD?
-- reply 0.6
